experiment: 1-Octanol-water partition coefficient, log P of the compound at pH 6 after 1 week by HPLC-ESIMS/MS analysis; format: physicochemical
Value Type: logD at 168 h

Please review the entries below; each comes with its answer.
>>> observed_result("COc1cc2c(cc1O)CC[n+]1cc3c(OC)c(OC)ccc3cc1-2.[Cl-] [JATRORRHIZINE CHLORIDE]")
-1.5
>>> observed_result("COc1ccc2cc3[n+](cc2c1O)CCc1cc2c(cc1-3)OCO2.[Cl-] [BERBERRUBINE CHLORIDE]")
0.9
>>> observed_result("COc1ccc2cc3[n+](cc2c1OC)CCc1cc2c(cc1-3)OCO2.[Cl-] [BERBERINE CHLORIDE]")
-1.2

I = COc1ccc2cc3[n+](cc2c1OC)CCc1cc(O)c(O)cc1-3.[Cl-]
II = COc1ccc2cc3n(cc-2c1=O)CCc1cc2c(cc1-3)OCO2
Task item: Endpoint returns the identifier whose logD at 168 h is numerically larger, either I or II . Record your answer as the label of the chosen record.
Reply: II
(II: 1.3, I: -1.1)

Numbers sourced from ChEMBL document CHEMBL3259696.
